Assayed Target: T1, Avi/His-HuIL18BPa (recombinant human IL-18BP isoform A with Avi and poly-His tags) (human, biotinylated with BirA on the Avi tag in some assays)
T1 construct: also called human IL-18BP-Avi-His
T1 chain: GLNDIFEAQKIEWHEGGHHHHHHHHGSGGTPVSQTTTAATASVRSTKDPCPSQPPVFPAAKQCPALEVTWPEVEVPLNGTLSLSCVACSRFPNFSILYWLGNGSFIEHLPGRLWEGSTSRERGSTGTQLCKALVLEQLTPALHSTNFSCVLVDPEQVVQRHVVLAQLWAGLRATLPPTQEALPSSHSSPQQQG
Experimental Protocol: ELISA, coated IL-18BP
Reported ELISA binding ratio (fold-change over background) values follow for various binders
I only need the number, in fold over background, no unit after it.

Record excerpt, results attached:
| Binder | Meas Value |
| --- | --- |
| anti-IL18BP antibody BP-10 (antibody, human IgG1, V domains shown) VH: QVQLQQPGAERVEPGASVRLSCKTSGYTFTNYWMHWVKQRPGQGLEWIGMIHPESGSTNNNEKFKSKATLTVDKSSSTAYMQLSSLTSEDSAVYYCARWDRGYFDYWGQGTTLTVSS VL: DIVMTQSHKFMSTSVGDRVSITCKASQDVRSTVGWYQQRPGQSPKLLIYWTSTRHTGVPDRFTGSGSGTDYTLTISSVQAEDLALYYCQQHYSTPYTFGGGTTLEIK | 42.1 |
| anti-IL18BP antibody BP-01 (antibody, human IgG1, V domains shown) VH: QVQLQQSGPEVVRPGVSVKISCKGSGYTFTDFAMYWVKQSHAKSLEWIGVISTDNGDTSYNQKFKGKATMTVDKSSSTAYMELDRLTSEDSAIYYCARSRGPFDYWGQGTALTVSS VL: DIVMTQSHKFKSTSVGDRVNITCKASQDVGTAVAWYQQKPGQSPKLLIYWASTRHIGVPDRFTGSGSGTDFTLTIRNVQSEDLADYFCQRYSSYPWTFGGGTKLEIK | 40.7 |

Please examine the following record next.
I would be grateful if you could share the reported ELISA binding ratio (fold-change over background) for anti-IL18BP antibody BP-06 (antibody, human IgG1, V domains shown) VH: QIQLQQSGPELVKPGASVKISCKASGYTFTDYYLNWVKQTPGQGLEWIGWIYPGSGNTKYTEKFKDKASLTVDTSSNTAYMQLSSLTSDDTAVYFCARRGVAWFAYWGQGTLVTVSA VL: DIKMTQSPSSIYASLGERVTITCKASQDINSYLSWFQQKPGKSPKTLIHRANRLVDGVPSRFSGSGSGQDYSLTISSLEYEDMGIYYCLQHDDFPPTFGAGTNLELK .
42.1
